Measured pKd accompanies every entry in the list below.
TGT: T1, PUF4 RNA-binding domain (Saccharomyces cerevisiae, UniProt P25339 537-888)
T1 sequence: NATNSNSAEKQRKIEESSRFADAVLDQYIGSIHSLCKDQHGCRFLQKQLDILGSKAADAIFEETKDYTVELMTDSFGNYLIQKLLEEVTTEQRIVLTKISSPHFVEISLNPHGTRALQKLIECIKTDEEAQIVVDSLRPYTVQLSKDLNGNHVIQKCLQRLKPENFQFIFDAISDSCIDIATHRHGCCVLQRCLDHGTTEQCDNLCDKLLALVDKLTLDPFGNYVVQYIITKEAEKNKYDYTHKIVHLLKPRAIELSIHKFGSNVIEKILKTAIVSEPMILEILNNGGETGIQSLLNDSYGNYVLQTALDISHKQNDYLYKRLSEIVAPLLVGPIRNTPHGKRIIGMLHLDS
METHOD_DESCRIPTION: Mg; RNA-MaP; 20 mM Na-HEPES pH 7.4, 30 mM KOAc, 0.75 mM MgCl2, 0.1% Tween-20, 5% glycerol, 0.1 mg/mL BSA, 2 mM DTT; 25 C; 0.0125-409.6 nM protein
STATED_CONDITIONS: tags: N-His6-TEV cleaved; C-SNAP kept, Cy3B-labelled; label: tethered on chip by stalled RNA polymerase
pKd: −log10 of the molar value.
RECORDED_METRIC: pKd

# BINDER, RECORDED_METRIC, MEASUREMENT
data = [
    ("Id_ii_S2_P3E.3_K3.2_C3.2_[C-2T]_[T-1G]_H3.2_A3.1_F3.1_T3.2_[A10T] (ssRNA) RNA: UUUGAUUAAUAUGAUAUCGUUCUUUCUUGUAUAUAUAUUUUCUUUCUCGAUAUCAUAUUAAUCUUU", "pKd", 8.90),
    ("Ic_S2_P4E.1_K4.1_C4.1_H4.1_A4.1_[T5C]_[A6G]_[T7C]_F4.1_[T8C]_[A9T]_T4.1 (ssRNA) RNA: UUUGAUUAAUAUGAUAUCGUUCUUUCUUGUACGCCUUUCUUUCUCGAUAUCAUAUUAAUCUUU", "pKd", 7.09),
    ("UCUCUUUGUAACCCAUUCUCUU (ssRNA) [Ic_S1_P5E.1_K5.1_C5.1_H5.1_A5.1_[T5A]_[T6C]_[A7C]_F5.1_[T8C]_[T9A]_[A10T]_T5.1]", "pKd", 6.15),
    ("UCUCUUCUUGUAUAUACCUCUCUU (ssRNA) [Id_ii_S1_P3E.2_K3.1_C3.2_H3.1_A3.1_F3.1_T3.2_[T9C]_[A10C]]", "pKd", 8.13),
    ("ACAAACUAUAUAUUAUUAAUACAAAC (ssRNA) [Id_ii_S3_P5E.3_K5.2_C5.2_[C-2T]_[T-1A]_H5.2_A5.1_F5.1_T5.2_[T11A]_[A12T]]", "pKd", 7.74),
    ("UCUCUUUGUAUUAUUAUCUCUCUU (ssRNA) [Ie_S1_P5E.1_K5.1_C5.1_H5.1_A5.1_F5.1_[+10TC]_T5.1]", "pKd", 8.36),
]

Recorded values, source paper PMC9352680.
